// provenance: patent US6352958B1

test system: soybean (Glycine max var. Winchester); test: Preemergence herbicidal activity, soybean; assay type: in vivo; conditions: Rate of Application 0.3 Kg/Ha, examined after 12-17 days
Outcome measure: PREEMERGENCE HERBICIDAL ACTIVITY (% CONTROL) SOY (%)
One number for each entry, in %.

Smiles structure: Cc1nc2c(-n3c(=O)cc(C(F)(F)F)n(C)c3=O)c(F)cc(Br)c2o1
Unit name: %
Measurement: 100

Working through the 2 molecules below one at a time, give PREEMERGENCE HERBICIDAL ACTIVITY (% CONTROL) SOY for each.
1. Cn1c(C(F)(F)F)cc(=O)n(-c2c(F)cc(Cl)c3cc(CCO)oc23)c1=O
2. Cn1c(C(F)(F)F)cc(=O)n(-c2c(F)cc(Cl)c3cc(CCCC#N)oc23)c1=O

[100, 100]
